System: Mus musculus
Test: Anticonvulsant activity in ip dosed mouse assessed as inhibition of PTZ-induced clonic seizure
Type: functional
rule met if ED50 is below 100 mg/kg. rule not met if not; exact matches included in rule not met.

- O=C1NC(=O)C(c2ccccc2)(c2ccccc2)N1 [PHENYTOIN]: rule not met
- CCC1(c2ccccc2)C(=O)NC(=O)NC1=O [PHENOBARBITAL]: rule met
- CC1(C)CC12NC(=O)N(NC(=O)c1ccc(C(F)(F)F)cc1)C2=O (configuration not stated): rule met
- CC1(C)CC12NC(=O)N(N1C(=O)c3ccccc3C1=O)C2=O (configuration not stated): rule not met
- NC(=O)N1c2ccccc2C=Cc2ccccc21 [CARBAMAZEPINE]: rule not met
- CC(C)(C)c1ccc(C(=O)NN2C(=O)NC3(CC3(C)C)C2=O)cc1 (configuration not stated): rule not met

Bench note: check whether CCCC(CCC)C(=O)[O-].[Na+] [VALPROATE SODIUM] shows ED50 below 100 mg/kg
rule not met
